Molecular target: hACSL5 (Homo sapiens (Human))
Assay: Human ACSL5 coupled enzyme Amplex Red assay
Assay type: biochemical
Details: read-out: hACSL5 IC50
Sequence (Q9ULC5 33-683): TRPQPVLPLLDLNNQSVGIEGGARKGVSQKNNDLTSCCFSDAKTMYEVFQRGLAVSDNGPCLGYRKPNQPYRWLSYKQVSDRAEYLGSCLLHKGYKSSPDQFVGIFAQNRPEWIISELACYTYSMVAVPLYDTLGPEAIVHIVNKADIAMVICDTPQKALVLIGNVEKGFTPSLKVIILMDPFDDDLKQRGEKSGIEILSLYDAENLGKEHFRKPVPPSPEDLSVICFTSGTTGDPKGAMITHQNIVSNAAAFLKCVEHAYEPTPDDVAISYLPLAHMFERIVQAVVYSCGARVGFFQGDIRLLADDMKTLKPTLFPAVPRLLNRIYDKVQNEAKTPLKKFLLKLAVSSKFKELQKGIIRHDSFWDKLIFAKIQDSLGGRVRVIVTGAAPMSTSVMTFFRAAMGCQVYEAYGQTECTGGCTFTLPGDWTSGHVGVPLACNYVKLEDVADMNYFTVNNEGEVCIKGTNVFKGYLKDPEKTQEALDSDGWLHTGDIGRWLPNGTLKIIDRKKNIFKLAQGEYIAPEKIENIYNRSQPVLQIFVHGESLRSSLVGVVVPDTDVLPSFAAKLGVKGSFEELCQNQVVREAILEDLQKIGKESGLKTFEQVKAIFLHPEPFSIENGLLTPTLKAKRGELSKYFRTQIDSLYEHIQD
measurementLabel: IC50

Some solved cases for reference:
compound: CC[C@@H](Oc1ccc(C(=O)NS(=O)(=O)c2ccc(OC3CCN(C)CC3)cc2)c(F)c1F)c1ccc(OCC2CC2)cn1
IC50: < 100 nM
--
compound: C[C@@H](Oc1ccc(C(=O)NS(=O)(=O)N2CCC(OC3CCN(C)CC3)CC2)cc1C(F)(F)F)c1ccc(Oc2ccccn2)cn1
IC50: < 100 nM
--
compound: CC[C@@H](Oc1ccc(C(=O)NS(=O)(=O)c2cnc(OC3CCN(C)CC3)nc2)c(F)c1F)c1ccc(OCC2CC2)cn1
IC50: < 100 nM
--
compound: CC[C@@H](Oc1ccc(C(=O)NS(=O)(=O)N2CCN(C)CC2(C)C)c(F)c1F)c1ccc(OCC2CC2)cn1
IC50: < 100 nM
--
compound: CC[C@@H](Oc1ccc(C(=O)NS(=O)(=O)N2CCC(CN3CCN(CC)CC3)CC2)c(F)c1F)c1ccc(OCC2CC2)cn1
IC50: < 100 nM

# query: IC50 | item CC[C@@H](Oc1ccc(C(=O)NS(=O)(=O)N2CCN(C3CCCC3)CC2)c(F)c1F)c1ccc(Oc2ccccn2)cn1 | system: hACSL5 (Homo sapiens (Human))
< 100 nM

Please give the result for CC[C@@H](Oc1ccc(C(=O)NS(=O)(=O)c2ccc(OCCN3CCCCC3)cc2)c(F)c1F)c1ccc(OCC2CC2)cn1 too.
< 100 nM

Also CC[C@@H](Oc1ccc(C(=O)NS(=O)(=O)N2CC3CC(C2)N3C)c(F)c1F)c1ccc(Oc2ccccn2)cn1 ?
< 100 nM

Query CC[C@@H](Oc1ccc(C(=O)NS(=O)(=O)c2ccc(OCCN(C)C)cc2)c(F)c1F)c1ccc(OC2CC(OC)C2)cn1 (stereo partly drawn) next
< 100 nM

Can you handle CC(Oc1ccc(C(=O)NS(=O)(=O)c2ccc(CN)cc2)cc1C(F)(F)F)c1cccc(Oc2cncnc2)c1 (stereo not drawn) next?
100 to 500 nM

Can you handle CC[C@@H](Oc1ccc(C(=O)NS(=O)(=O)N2CCN(CCOC)CC2)c(F)c1F)c1ccc(OCC2CC2)cn1 next?
< 100 nM

###

Target: hACSL5 (Homo sapiens (Human), UniProt Q9ULC5)
Assay: Cell-based assay (CBA) with B12FA in hACSL5-transfected Expi293F / FlpIn TRex293 cells
Conditions: hACSL5-expressing cells
Sequence (Q9ULC5 whole entry): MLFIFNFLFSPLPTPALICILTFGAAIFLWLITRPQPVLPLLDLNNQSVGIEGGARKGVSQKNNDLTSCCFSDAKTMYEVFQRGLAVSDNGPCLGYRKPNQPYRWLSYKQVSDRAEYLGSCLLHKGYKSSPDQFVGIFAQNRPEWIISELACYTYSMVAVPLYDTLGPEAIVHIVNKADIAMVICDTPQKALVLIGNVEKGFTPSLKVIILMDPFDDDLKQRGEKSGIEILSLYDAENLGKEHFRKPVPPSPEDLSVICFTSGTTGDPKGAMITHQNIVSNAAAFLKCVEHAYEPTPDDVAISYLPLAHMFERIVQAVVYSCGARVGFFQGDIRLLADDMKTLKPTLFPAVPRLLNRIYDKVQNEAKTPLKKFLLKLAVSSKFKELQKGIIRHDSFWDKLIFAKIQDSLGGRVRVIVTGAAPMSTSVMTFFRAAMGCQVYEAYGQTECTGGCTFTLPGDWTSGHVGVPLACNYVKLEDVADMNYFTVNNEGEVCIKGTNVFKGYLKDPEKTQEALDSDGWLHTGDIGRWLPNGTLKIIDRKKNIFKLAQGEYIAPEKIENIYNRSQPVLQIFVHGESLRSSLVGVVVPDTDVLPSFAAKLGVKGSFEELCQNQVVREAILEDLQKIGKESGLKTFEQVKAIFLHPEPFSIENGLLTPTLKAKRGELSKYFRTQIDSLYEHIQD
measurementLabel: IC50

chemSmiles: CC[C@@H](Oc1ccc(C(=O)NS(=O)(=O)N2CCN(C)[C@H](C)C2)c(F)c1F)c1ccc(OCC2CC2)cn1
studyTarget: hACSL5 (Homo sapiens (Human), UniProt Q9ULC5)
endpointValue: < 100 nM

chemSmiles: CC[C@@H](Oc1ccc(C(=O)NS(=O)(=O)N2CCN(CCOC)CC2)c(F)c1F)c1ccc(OCC2CC2)cn1
studyTarget: hACSL5 (Homo sapiens (Human), UniProt Q9ULC5)
endpointValue: < 100 nM

chemSmiles: CC[C@@H](Oc1ccc(C(=O)NS(=O)(=O)N2CCC(OC3CCN(C)CC3)CC2)c(F)c1F)c1ccc(OCC2CC2)cn1
studyTarget: hACSL5 (Homo sapiens (Human), UniProt Q9ULC5)
endpointValue: 100 to 500 nM

Could you tell me which IC50 is on file for CC[C@@H](Oc1ccc(C(=O)NS(=O)(=O)C2CCN(C)CC2)c(F)c1F)c1ccc(OCC2CC2)cn1 ?
> 500 nM

Please do the same for CC[C@@H](Oc1ccc(C(=O)NS(=O)(=O)c2ccc(OCCN3CCCC3)nn2)c(F)c1F)c1ccc(OCC2CC2)cn1 as well.
> 500 nM

###

Target: hACSL5 (Homo sapiens (Human), UniProt Q9ULC5)
Test: Cell-based assay (CBA) with B12FA in hACSL5-transfected Expi293F / FlpIn TRex293 cells
Settings: hACSL5-expressing cells
pIC50: −log10 of the molar value.
measurementLabel: pIC50

compound: CC[C@@H](Oc1ccc(C(=O)NS(=O)(=O)N2CC3(CC(OC4CCN(C)CC4)C3)C2)c(F)c1F)c1ccc(OCC2CC2)cn1
studyTarget: hACSL5 (Homo sapiens (Human), UniProt Q9ULC5)
pIC50: < 6.30

compound: CC[C@@H](Oc1ccc(C(=O)NS(=O)(=O)N2CCN(C3CC3)CC2)c(F)c1F)c1ccc(OC2CC(OC)C2)cn1 (stereo partly shown)
studyTarget: hACSL5 (Homo sapiens (Human), UniProt Q9ULC5)
pIC50: 6.30 to 7.00

compound: CC[C@@H](Oc1ccc(C(=O)NS(=O)(=O)c2ccc(O[C@@H]3CCN(C)C3)cc2)c(F)c1F)c1ccc(OCC2CC2)cn1
studyTarget: hACSL5 (Homo sapiens (Human), UniProt Q9ULC5)
pIC50: 6.30 to 7.00

Please provide the recorded pIC50 for CC[C@@H](Oc1ccc(C(=O)NS(=O)(=O)c2ccc(OC3CCN(C)C(C)(C)C3)cc2)c(F)c1F)c1ccc(OCC2CC2)cn1 (stereo partly shown) , tested on hACSL5 (Homo sapiens (Human), UniProt Q9ULC5).
6.30 to 7.00

###

Molecular target: hACSL5 (Homo sapiens (Human))
Experiment: Human ACSL5 coupled enzyme Amplex Red assay
Assay type: biochemical
Details: read-out: hACSL5 IC50
pIC50: −log10 of the molar value.
Below: a set of entries, each annotated with reported pIC50.

Some solved cases for reference:
compound: CC[C@@H](Oc1ccc(C(=O)NS(=O)(=O)N2CCN(C3CC3)CC2)c(F)c1F)c1ccc(OC2CC(OC)C2)cn1 (some centres unmarked)
measurementLabel: pIC50
endpointValue: > 7.00
//
compound: CC[C@@H](Oc1ccc(C(=O)NS(=O)(=O)c2ccc(OC3CCN(C)CC3)cc2)c(F)c1F)c1cc(OCC2CC2)ccn1
measurementLabel: pIC50
endpointValue: 6.30 to 7.00
//
compound: CC[C@@H](Oc1ccc(C(=O)NS(=O)(=O)c2ccc(OCCN(C)C)cc2)cc1C(F)(F)F)c1ccc(Oc2ccccn2)cn1
measurementLabel: pIC50
endpointValue: > 7.00

Using the record for CC[C@@H](Oc1ccc(C(=O)NS(=O)(=O)N2CCC(OC3CCN(C)CC3)CC2)c(F)c1F)c1cc(Oc2ccccn2)ccn1 , report its pIC50.
> 7.00

Item: CC[C@@H](Oc1ccc(C(=O)NS(=O)(=O)c2ccc(OCCNC3COC3)cc2)c(F)c1F)c1ccc(OCC2CC2)cn1
> 7.00

Same read-out for CC[C@@H](Oc1ccc(C(=O)NS(=O)(=O)N2CCN(C)[C@@H](C)C2)c(F)c1F)c1ccc(Oc2ccccn2)cn1 ?
> 7.00

Same read-out for CC[C@@H](Oc1ccc(C(=O)NS(=O)(=O)c2ccc(OCCN(C)C)cc2)c(F)c1F)c1cc(OCC2CC2)ccn1 ?
6.30 to 7.00

###

Biological target: hACSL5 (Homo sapiens (Human))
Assay: Cell-based assay (CBA) with B12FA in hACSL5-transfected Expi293F / FlpIn TRex293 cells
Conditions: hACSL5-expressing cells
pIC50: −log10 of the molar value.
measurementLabel: pIC50

A selection of reference data follows.
compound: CC[C@@H](Oc1ccc(C(=O)NS(=O)(=O)N2CCN(C)CC2)c(F)c1F)c1ccc(Oc2ccccn2)cn1 [Compound D]
pIC50: > 7.00

compound: CC[C@@H](Oc1ccc(C(=O)NS(=O)(=O)N2CCN(CC3CC3)CC2)c(F)c1F)c1ccc(Oc2ccccn2)cn1
pIC50: > 7.00

compound: CC[C@@H](Oc1ccc(C(=O)NS(=O)(=O)N2CCN(C3CCC3)CC2)c(F)c1F)c1ccc(Oc2ccccn2)cn1
pIC50: > 7.00

compound: [2H]C([2H])([2H])N1CCC(Oc2ccc(S(=O)(=O)NC(=O)c3ccc(O[C@H](CC)c4ccc(OCC5CC5)cn4)c(F)c3F)cc2)CC1
pIC50: > 7.00

Item: CC[C@@H](Oc1ccc(C(=O)NS(=O)(=O)N2CCN(C3CCCCC3)CC2)c(F)c1F)c1ccc(Oc2ccccn2)cn1 Test system: hACSL5 (Homo sapiens (Human)) Read-out: pIC50 Value: ?
6.30 to 7.00

What about this compound? CC[C@@H](Oc1ccc(C(=O)NS(=O)(=O)N2CCN(C)CC2)c(F)c1F)c1ccc(OC2CC(OC(F)F)C2)cn1 (some centres unmarked)
6.30 to 7.00

Same again, this time with CC[C@@H](Oc1ccc(C(=O)NS(=O)(=O)N2CCC(OC3CCN(C)CC3)CC2)c(F)c1F)c1cc(OCC2CC2)ccn1
6.30 to 7.00

Now give it for CC[C@@H](Oc1ccc(C(=O)NS(=O)(=O)N2CCN(CC)CC2)c(F)c1F)c1ccc(Oc2ccccn2)cn1 too.
> 7.00

Follow-up entry: CC[C@@H](Oc1ccc(C(=O)NS(=O)(=O)c2ccc(OCCN(C)C)cc2)c(F)c1F)c1ccc(Oc2ccccn2)cn1
6.30 to 7.00

Check CC[C@@H](Oc1ccc(C(=O)NS(=O)(=O)c2ccc(OC3CCN(C)CC3)nc2)c(F)c1F)c1ccc(OCC2CC2)cn1 too.
6.30 to 7.00

Let us now turn to CC[C@@H](Oc1ccc(C(=O)NS(=O)(=O)c2ccc(OCCN3CCCC3)cc2)c(F)c1F)c1ccc(OCC2CC2)cn1
6.30 to 7.00

Proceed to CC[C@@H](Oc1ccc(C(=O)NS(=O)(=O)N2CCN(C)CC2)c(F)c1F)c1cc(OCC2CC2)ccn1
6.30 to 7.00
